Reference for the values: PubChem BioAssay (NCI)

Test system: U251 CNS
assayProcedure: NCI tumour cell line growth inhibition, 48 h
propertyMeasured: TGI

- molecule: "O=c1/c(=C/c2ccccn2)sc2nc3cc4c(cc3n12)OCCO4"
  testedTarget: "U251 CNS"
  propertyMeasured: "TGI"
  observed: "> 100 µM"
- molecule: "C=C1CCOC2(C(O)C(C)(O)CO)NC(=O)C1(O)NC2=O (stereo unspecified)"
  testedTarget: "U251 CNS"
  propertyMeasured: "TGI"
  observed: "> 100 µM"
- molecule: "CSc1nc(NCc2ccccc2)c2cnn(COCCO)c2n1"
  testedTarget: "U251 CNS"
  propertyMeasured: "TGI"
  observed: "> 100 µM"
- molecule: "N=C(CC(=O)Nc1ccccn1)c1ccccc1"
  testedTarget: "U251 CNS"
  propertyMeasured: "TGI"
  observed: "> 100 µM"
- molecule: "CCC(Nc1ncnc2nc[nH]c12)C(=O)O (stereo unspecified)"
  testedTarget: "U251 CNS"
  propertyMeasured: "TGI"
  observed: "> 100 µM"
- molecule: "CSC(C1c2ccccc2N(C)c2[nH]c(=O)n(C)c(=O)c21)S(=O)(=O)c1ccc(C)cc1 (stereo unspecified)"
  testedTarget: "U251 CNS"
  propertyMeasured: "TGI"
  observed: "> 100 µM"
- molecule: "O=C1/C(=C/c2ccc(C(F)(F)F)cc2)COc2ccc(O)c(O)c21"
  testedTarget: "U251 CNS"
  propertyMeasured: "TGI"
  observed: "2.05 µM"
- molecule: "CCCCCCCCCCCCOC1C(COCCN2CCCCC2)OC2OC(C)(C)OC21 (stereo unspecified)"
  testedTarget: "U251 CNS"
  propertyMeasured: "TGI"
  observed: "3.48 µM"
- molecule: "CCCN(CCC)C(=O)c1c(N2CCN(C)CC2)c2cccnc2n2c(C)cnc12"
  testedTarget: "U251 CNS"
  propertyMeasured: "TGI"
  observed: "> 100 µM"
- molecule: "COc1ccc2c(c1)-c1c(c3cc(OC)ccc3n(CCN(C)C)c1=O)C2=O"
  testedTarget: "U251 CNS"
  propertyMeasured: "TGI"
  observed: "6.77 µM"
- molecule: "Cc1cc(O)c2c(c1)C(C1c3cccc(O)c3C(=O)c3c(O)cc(C)cc31)c1cccc(O)c1C2=O (stereo unspecified)"
  testedTarget: "U251 CNS"
  propertyMeasured: "TGI"
  observed: "12.3 µM"

###

Test system: XF 498 CNS
assayProcedure: NCI tumour cell line growth inhibition, 48 h
Where a SMILES comes first, the peptide text is derived from it. [ ]: non-standard residue; d: D form. The star is where a group is joined. ξ: configuration not given here. NMeF = CN[CH](Cc1ccccc1)C(=O)O; ξNMe2Val = CC(C)C(C(=O)*)N(C)C; NMeV = CN[CH](C(=O)O)C(C)C; OtBu = CC(C)(C)O*
Let's look at some compounds and their measured TGI.

- compound: "NC(=S)N1N=C2c3ccccc3CCC[C@H]2[C@@H]1c1ccccc1"
  unitAbbrev: "µM"
  modifierSign: "="
  TGI: 16.5
- compound: "CC(C)C(C(=O)N(C)C(Cc1ccccc1)C(=O)N(C)C(C(=O)N(C)C(C(=O)N1CCCC1C(=O)OC(C)(C)C)C(C)C)C(C)C)N(C)C (stereo not given) (ξNMe2Val-[NMeF][NMeV][NMeV]P-OtBu; configuration not given here)"
  unitAbbrev: "µM"
  modifierSign: "="
  TGI: 86.1
- compound: "COc1ccc(-c2oc3cc(O)c(OC)c(O)c3c(=O)c2O)cc1"
  unitAbbrev: "µM"
  modifierSign: ">"
  TGI: 100
- compound: "CCCCCCCCCCCC[N+]12CC[N+](C)(CC1)CC2"
  unitAbbrev: "µM"
  modifierSign: "="
  TGI: 80
- compound: "N#COc1ccc(Oc2ccc(OC#N)cc2)cc1"
  unitAbbrev: "µM"
  modifierSign: ">"
  TGI: 100
- compound: "Cc1ccc(S(=O)(=O)C2CC2(Cl)Cl)cc1 (stereo not given)"
  unitAbbrev: "µM"
  modifierSign: "="
  TGI: 45.2
- compound: "CC(=O)CC(=O)Nc1ccccc1C(F)(F)F"
  unitAbbrev: "µM"
  modifierSign: ">"
  TGI: 100
- compound: "Cc1ccc(NC(=O)C2C3CCC(O3)C2C(=O)O)cc1 (stereo not given)"
  unitAbbrev: "µM"
  modifierSign: ">"
  TGI: 77.8
- compound: "Cc1cc(Br)ccc1N=Nc1c(C)nn(-c2ccccc2)c1-c1ccccc1"
  unitAbbrev: "µM"
  modifierSign: ">"
  TGI: 100
- compound: "COc1ccc(C(=O)C(C(=O)C(=O)NCCCNC(=O)C(=O)C(C(=O)c2ccc(OC)cc2)c2ccc(OC)cc2)c2ccc(OC)cc2)cc1 (stereo not given)"
  unitAbbrev: "µM"
  modifierSign: ">"
  TGI: 100

###

Let's look at some compounds and their measured TGI.
System: TK-10 renal
assayProcedure: NCI tumour cell line growth inhibition, 48 h
propertyMeasured: TGI

- compound: "CCS(=O)(=O)c1ccc(OC)c(Nc2ncc(-c3cccc(F)c3)o2)c1"
  propertyMeasured: "TGI"
  observed: "> 25 µM"
- compound: "CCOC(=O)N1CCC2(CC1)C[C@@](C(C)=O)(c1ccccc1)C(C)O2 (stereo partly specified)"
  propertyMeasured: "TGI"
  observed: "> 100 µM"
- compound: "N#COc1ccc(Oc2ccc(OC#N)cc2)cc1"
  propertyMeasured: "TGI"
  observed: "> 100 µM"
- compound: "O=C1/C(=C/c2ccc(C(F)(F)F)cc2)COc2ccc(O)c(O)c21"
  propertyMeasured: "TGI"
  observed: "3.03 µM"
- compound: "Cc1ccc(Nc2nc(-c3ccc(-c4ccc([N+](=O)[O-])cc4)o3)cs2)cc1"
  propertyMeasured: "TGI"
  observed: "> 100 µM"
- compound: "O=C(O)c1nn(-c2ccccc2)nc1-c1nn(-c2ccccc2)nc1C(=O)O"
  propertyMeasured: "TGI"
  observed: "> 100 µM"
- compound: "Fc1ccc(C(OCCN2CCC3CCC(C2)N3C/C=C/c2cccs2)c2ccc(F)cc2)cc1 (stereo unspecified)"
  propertyMeasured: "TGI"
  observed: "24.3 µM"
- compound: "CSc1nnc(C(C#N)C#N)nn1"
  propertyMeasured: "TGI"
  observed: "> 100 µM"
- compound: "Cc1cc(C)n(-c2nc(C)c(CCO)c(=O)[nH]2)n1"
  propertyMeasured: "TGI"
  observed: "> 100 µM"
- compound: "C(=C/c1nnnn1-c1ccccc1)/Nc1ccccc1"
  propertyMeasured: "TGI"
  observed: "77.5 µM"
- compound: "Brc1ccc(-c2cc3c(cc2C2SCCS2)OCO3)cc1"
  propertyMeasured: "TGI"
  observed: "> 100 µM"

###

Test system: HCT-116 colon
assayProcedure: NCI tumour cell line growth inhibition, 48 h
Where a SMILES comes first, the peptide text is derived from it. [ ]: non-standard residue; d: D form. The star is where a group is joined. ξ: configuration not given here. NMeF = CN[CH](Cc1ccccc1)C(=O)O; ξNMe2Val = CC(C)C(C(=O)*)N(C)C; NMeV = CN[CH](C(=O)O)C(C)C; OtBu = CC(C)(C)O*

- molecule: "CC1(C)C(=O)/C=C\\C(=O)C(C)(C)C(=O)/C=C\\C(=O)C(C)(C)C2=CC=C(O2)C(C)(C)C(=O)/C=C\\C1=O"
  testedTarget: "HCT-116 colon"
  TGI: "5 µM"
- molecule: "COc1ccc(-c2cc(-c3ccc(Nc4ccnc5cc(Cl)ccc45)cc3)[nH]c(=O)c2C#N)cc1"
  testedTarget: "HCT-116 colon"
  TGI: "> 100 µM"
- molecule: "COc1ccc(-c2c(-c3ccc(C#N)c(F)c3)nc(N3CCC(N)CC3)n(C)c2=O)cc1F"
  testedTarget: "HCT-116 colon"
  TGI: "> 100 µM"
- molecule: "CC(=O)[C@@]1(c2ccccc2)CC2(CCN(C)CC2)O[C@H]1C"
  testedTarget: "HCT-116 colon"
  TGI: "> 100 µM"
- molecule: "COC(=O)C(CCC1(C)OCCO1)=[N+]=[N-]"
  testedTarget: "HCT-116 colon"
  TGI: "> 100 µM"
- molecule: "O=C(CCc1ccccc1)CC1OC(=O)C(Cl)=C1Cl (stereo not given)"
  testedTarget: "HCT-116 colon"
  TGI: "28 µM"
- molecule: "CCCN(CCC)C(=O)c1c(N2CCN(C)CC2)c2cccnc2n2c(C)cnc12"
  testedTarget: "HCT-116 colon"
  TGI: "> 100 µM"
- molecule: "O=C1C=CC(=O)c2c1nc(CBr)[nH]c2=O"
  testedTarget: "HCT-116 colon"
  TGI: "> 100 µM"
- molecule: "Cc1nn2c(c1C#N)NNc1c-2sc(=N)nnc1=O"
  testedTarget: "HCT-116 colon"
  TGI: "> 100 µM"
- molecule: "COc1cc(S(=O)(=O)Nc2ccc(-c3csc(N4C(=O)CSC4c4ccccc4O)n3)cc2)ccc1Cl (stereo not given)"
  testedTarget: "HCT-116 colon"
  TGI: "> 100 µM"
- molecule: "O=c1c2c3c(sc2nc2n1NC=NN2)CCCC3"
  testedTarget: "HCT-116 colon"
  TGI: "32.4 µM"
- molecule: "CC1=C(C(=O)Nc2ccc(Cl)c(Cl)c2)C(c2cccc(Cl)c2)NC(=S)N1 (stereo not given)"
  testedTarget: "HCT-116 colon"
  TGI: "21.5 µM"
- molecule: "COc1ccc(-c2[nH]ncc2Nc2cc(OC)c(OC)c(OC)c2)cc1"
  testedTarget: "HCT-116 colon"
  TGI: "> 43.2 µM"
- molecule: "CCOC(=O)C1C(=O)CC(=O)C2CCCCC21 (stereo not given)"
  testedTarget: "HCT-116 colon"
  TGI: "> 100 µM"
- molecule: "Nc1ccn(C2CCC(COP(=O)(O)OCC(O)COP(=O)(O)OCC3OC(n4cc(F)c(=O)[nH]c4=O)CC3O)O2)c(=O)n1 (stereo not given)"
  testedTarget: "HCT-116 colon"
  TGI: "> 100 µM"
- molecule: "CCN(CC)c1c(C)nnn1C1OC(COC(C)=O)C(OC(C)=O)C(OC(C)=O)C1OC(C)=O (stereo not given)"
  testedTarget: "HCT-116 colon"
  TGI: "> 100 µM"
- molecule: "Cc1cc(C)n(-c2nc(C)c(CCO)c(=O)[nH]2)n1"
  testedTarget: "HCT-116 colon"
  TGI: "> 100 µM"
- molecule: "Cn1c(I)c(C#C[Si](C)(C)C)c(=O)[nH]c1=O"
  testedTarget: "HCT-116 colon"
  TGI: "3.57 µM"
- molecule: "CN(CCCCCl)P(=O)(OCc1ccc([N+](=O)[O-])o1)OCC1OC(n2cc([N+](=O)[O-])c(=O)[nH]c2=O)CC1O (stereo not given)"
  testedTarget: "HCT-116 colon"
  TGI: "> 100 µM"
- molecule: "COc1cc(C2NC(=O)C(C#N)=C(Nc3cccc(C)c3)S2)ccc1O (stereo not given)"
  testedTarget: "HCT-116 colon"
  TGI: "> 100 µM"
- molecule: "COc1cnccc1Nc1nc(-c2nn(Cc3c(F)cc(OCCO)cc3F)c3ccccc23)ncc1OC"
  testedTarget: "HCT-116 colon"
  TGI: "20.2 µM"
- molecule: "CC(C)C(C(=O)N(C)C(Cc1ccccc1)C(=O)N(C)C(C(=O)N(C)C(C(=O)N1CCCC1C(=O)OC(C)(C)C)C(C)C)C(C)C)N(C)C (stereo not given) (ξNMe2Val-[NMeF][NMeV][NMeV]P-OtBu; configuration not given here)"
  testedTarget: "HCT-116 colon"
  TGI: "> 100 µM"
- molecule: "CC#COS(=O)(=O)c1ccc(C)cc1"
  testedTarget: "HCT-116 colon"
  TGI: "> 100 µM"
- molecule: "CN1C(=O)C23CCCC2CC1(c1ccccc1)S3 (stereo not given)"
  testedTarget: "HCT-116 colon"
  TGI: "> 100 µM"
- molecule: "COC(=O)C(=O)C(C(=O)OC)C(=O)C(=O)Nc1c(Cl)cc([N+](=O)[O-])cc1Cl (stereo not given)"
  testedTarget: "HCT-116 colon"
  TGI: "> 100 µM"
- molecule: "O=c1[nH]cnc2c1cnn2Cc1cnnn1COCCO"
  testedTarget: "HCT-116 colon"
  TGI: "> 100 µM"
- molecule: "CC(=O)[CH-]C(=O)c1ccccc1.CC(=O)[CH-]C(=O)c1ccccc1.CC(=O)[CH-]C(=O)c1ccccc1.[Ga+3]"
  testedTarget: "HCT-116 colon"
  TGI: "29.8 µM"
- molecule: "C(=C/c1nnnn1-c1ccccc1)/Nc1ccccc1"
  testedTarget: "HCT-116 colon"
  TGI: "95.7 µM"
- molecule: "COc1ccc(-c2oc3cc(O)c(OC)c(O)c3c(=O)c2O)cc1"
  testedTarget: "HCT-116 colon"
  TGI: "> 66.6 µM"
- molecule: "Cc1[nH]c2nccn2c(=O)c1CCO"
  testedTarget: "HCT-116 colon"
  TGI: "> 10 µM"
- molecule: "CN(C)c1ccc2[nH]c3c(C(N)=O)cc(=O)c(=O)c=3oc2c1"
  testedTarget: "HCT-116 colon"
  TGI: "1.22 µM"
- molecule: "CCCCCCCCN=C(NCCCCCCCC)SCc1cccc2ccccc12"
  testedTarget: "HCT-116 colon"
  TGI: "2.01 µM"
- molecule: "CCOC(=O)/C=C1/SC(=Nc2ccc(C#N)cc2)N(Cc2ccco2)C1=O"
  testedTarget: "HCT-116 colon"
  TGI: "4.97 µM"
- molecule: "Clc1ccc(-c2nc(NCc3ccco3)c3ccccc3n2)c(Cl)c1"
  testedTarget: "HCT-116 colon"
  TGI: "45.8 µM"
- molecule: "CN1CCN(c2ccc(NC3=CC(=O)c4ncncc4C3=O)cc2)CC1"
  testedTarget: "HCT-116 colon"
  TGI: "0.545 µM"
- molecule: "CSc1ccc(C(=O)/C=C/c2ccc(Cl)cc2Cl)cc1"
  testedTarget: "HCT-116 colon"
  TGI: "14.9 µM"
- molecule: "COC(=O)c1ccccc1C1CN=NC12Cc1ccc3c(c1C2=O)CCC3 (stereo not given)"
  testedTarget: "HCT-116 colon"
  TGI: "> 100 µM"
- molecule: "O=C1[C@@H]2C(c3ccccc3[N+](=O)[O-])=NO[C@@H]2C(=O)N1c1ccc(Cc2ccc(N3C(=O)[C@H]4C(c5ccccc5[N+](=O)[O-])=NO[C@H]4C3=O)cc2)cc1"
  testedTarget: "HCT-116 colon"
  TGI: "> 100 µM"
- molecule: "NC(=O)/N=C/c1c(O)c2ccccc2oc1=O"
  testedTarget: "HCT-116 colon"
  TGI: "> 100 µM"
- molecule: "C=C(C)CCC1C=[N+]([O-])OC(C)(C)C1(C)C (stereo not given)"
  testedTarget: "HCT-116 colon"
  TGI: "> 100 µM"
